Where these numbers come from: PubChem BioAssay AID1259312

- Assay Explanation: survival after telomere uncapping, modulators, primary screen, cell-based (AID 1259312);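 also: virus expresses mutant telomerase RNA that uncaps telomeres and kills cells; compound added 2 days after infection so exposure lasts 3 days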
- Conditions Used: HCT116 + Ad-hTR-mut, MTT, 5 d; at 10 µM
In all, about 4,500 compounds went through this assay and about 200 (4.4%) were called active.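 The calls were made as follows: active = cell survival measured by absorbance rises more than 2.5-fold over infected cells without compound; inactive = the rest.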 The list comes from a sample in which actives are over-represented; it also holds close analogues and randomly drawn compounds.
Your response should consist of one outcome taken from active, inactive

Ask: Write down the call the test reported for this compound. Item: N#CC1=C(N)n2c(s/c(=C\c3ccc(Cl)cc3)c2=O)=C(C#N)C1c1ccc(Cl)cc1 (configuration not stated)
Result: inactive

Ask: Write down the call the test reported for this compound. Item: "O=[N+]([O-])c1ccc(Nc2ccc3c(c2)OCCO3)nc1"
Result: inactive

Ask: Write down the call the test reported for this compound. Item: "c1ccc2cc(NCSCc3nc4ccccc4c4ccccc34)ccc2c1"
Result: inactive

Ask: Write down the call the test reported for this compound. Item: "O=[N+]([O-])c1cccnc1NCCc1cccs1"
Result: inactive

Ask: Write down the call the test reported for this compound. Item: "O=C(C(=O)N1CCc2ccccc21)N1CCc2ccccc21"
Result: inactive

Ask: Write down the call the test reported for this compound. Item: "CCc1sc(/C=C(/C#N)C(=O)OC(C)C)cc1Br"
Result: inactive

Ask: Write down the call the test reported for this compound. Item: "Oc1ccc(Br)cc1C=Nc1ccc(I)cc1"
Result: active
